target: human TLR2 (Pam3CSK4, TLR1/2 agonist) in HEK-Blue hTLR2 cells (Homo sapiens, UniProt O60603); construct: host or cells: HEK-Blue hTLR2 (HEK-293); assay: HEK-Blue hTLR2 antagonism assay (SEAP reporter) with Pam3CSK4 as agonist; assay type: cell-based; conditions: 2 h compound pre-incubation, approx. 3×EC50 Pam3CSK4, 18 h, SEAP OD 655 nm, background subtracted
Sequence (O60603 19-784 limits assumed): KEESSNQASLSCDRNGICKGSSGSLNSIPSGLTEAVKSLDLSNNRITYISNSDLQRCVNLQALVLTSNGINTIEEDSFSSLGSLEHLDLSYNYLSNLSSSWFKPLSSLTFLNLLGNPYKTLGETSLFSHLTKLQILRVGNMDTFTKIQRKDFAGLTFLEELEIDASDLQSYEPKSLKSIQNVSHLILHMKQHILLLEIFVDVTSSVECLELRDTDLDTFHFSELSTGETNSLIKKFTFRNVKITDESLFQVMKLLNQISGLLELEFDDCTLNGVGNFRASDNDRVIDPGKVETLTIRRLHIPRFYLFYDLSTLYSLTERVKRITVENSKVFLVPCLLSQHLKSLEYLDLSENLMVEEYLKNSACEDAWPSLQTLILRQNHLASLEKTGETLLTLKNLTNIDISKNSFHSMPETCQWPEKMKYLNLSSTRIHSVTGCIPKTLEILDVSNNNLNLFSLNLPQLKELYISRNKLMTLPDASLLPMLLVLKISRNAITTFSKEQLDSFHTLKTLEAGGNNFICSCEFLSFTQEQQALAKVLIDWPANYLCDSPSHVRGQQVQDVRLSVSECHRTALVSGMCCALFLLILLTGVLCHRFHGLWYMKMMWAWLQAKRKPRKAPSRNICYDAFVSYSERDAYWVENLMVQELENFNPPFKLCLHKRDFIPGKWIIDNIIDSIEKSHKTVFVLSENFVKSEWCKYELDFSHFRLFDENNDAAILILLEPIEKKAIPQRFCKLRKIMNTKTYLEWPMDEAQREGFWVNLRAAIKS
quantity_name: IC50 (µM)

Some compounds with known IC50 results, for comparison:
Cc1ccc(/C=C/c2cc(F)c(O)c(C=O)c2)cn1	10
COc1cc(/C=C/c2ccc(N3CCCCC3)cc2)cc(C=O)c1O	0.6
Oc1c(F)cc(/C=C/c2ccc(N3CCCC3)cc2)cc1/C=N/Nc1ccccc1	6
COc1cc(/C=C/c2ccccn2)cc(C=O)c1O	11.5
COc1cc(/C=C/c2ccncc2)cc(C=O)c1O	16.4
O=Cc1cc(/C=C/c2ccc(N3CCCCC3)cc2)cc(F)c1O	0.4

[1] O=Cc1cc(/C=C/c2ccc(N3CCCC3)nc2)cc(F)c1O
[2] O=Cc1cc(/C=C\c2ccc(N3CCCC3)cc2)cc(F)c1O
// pick larger IC50 from pair: 1 vs 2 Reply with the label of the item you choose.
2

----------
target: human TLR2 (Pam2CSK4, TLR2/6 agonist) in HEK-Blue hTLR2 cells (Homo sapiens, UniProt O60603); construct: host or cells: HEK-Blue hTLR2 (HEK-293); experiment: HEK-Blue hTLR2 antagonism assay (SEAP reporter) with Pam2CSK4 as agonist; type: cell-based; details: 2 h compound pre-incubation, approx. 3×EC50 Pam2CSK4, 18 h, SEAP OD 655 nm, background subtracted
Sequence (O60603 19-784 limits assumed): as above
quantity_name: IC50 (µM)

Some compounds with known IC50 results, for comparison:
COc1cc(/C=C/c2ccc(F)cc2F)cc(C=O)c1O [compound 6]	2.5
Oc1c(F)cc(/C=C/c2ccc(N3CCCC3)cc2)cc1/C=N/Oc1ccccc1 [compound 82]	2.1
COc1cc(/C=C/c2cccc(N3CCOCC3)c2)cc(C=O)c1O [compound 44]	3
COc1cc(/C=C/c2ccc3ncccc3c2)cc(C=O)c1O [compound 58]	4.9
O=Cc1cc(/C=C/c2ccncc2)cc(F)c1O [compound 30]	20.6
CC(C)(C)OC(=O)N1CCN(/N=C/c2cc(/C=C/c3ccc(N4CCCC4)cc3)cc(F)c2O)CC1 [compound 95]	4.4

[1] O=Cc1cc(/C=C\c2ccc(N3CCCC3)cc2)cc(F)c1O [compound 50]
[2] COCCOc1ccc(/C=C/c2cc(C=O)c(O)c(OC)c2)cc1 [compound 54]
[3] O=Cc1cc(/C=C/c2ccc(N3CCCCC3)cc2)cc(F)c1O [compound 70]
Please list these in order of increasing IC50. Thank you! Put the labels in the order asked and list them.
3, 2, 1

[P] COc1cc(/C=C/c2cc(F)cc(F)c2)cc(C=O)c1O [compound 5]
[Q] COc1cc(/C=C/c2ccc(-n3cccn3)cc2)cc(C=O)c1O [compound 56]
[R] COc1ccc(/C=C/c2cc(C=O)c(O)cc2F)cc1 [compound 22]
[S] O=Cc1cc(/C=C/c2ccc(N3CCCC3)cc2)cc(F)c1O [Example 49a]
Please list these in order of increasing IC50. Thank you! Put the labels in the order asked and list them.
S, Q, P, R
(S: 0.5 µM, Q: 1.8 µM, P: 4 µM, R: 17.8 µM)

[1] O=Cc1cc(/C=C/c2ccccn2)cc(F)c1O [compound 28]
[2] O=C(N/N=C/c1cc(/C=C/c2ccc(N3CCCC3)cc2)cc(F)c1O)c1ccccc1 [compound 80]
[3] CN1CCN(/N=C/c2cc(/C=C/c3ccc(N4CCCC4)cc3)cc(F)c2O)CC1 [compound 76]
[4] COc1cc(/C=C/c2cc(C=O)c(O)c(OC)c2)ccc1O [compound 34]
Please list these in order of increasing IC50. Thank you! Put the labels in the order asked and list them.
3, 4, 1, 2
(3: 0.4 µM, 4: 9.7 µM, 1: 19.5 µM, 2: 28.4 µM)

[I] CC(=O)N1CCc2sc(-c3cc(F)c(O)c(C=O)c3)cc2C1 [compound 19]
[II] COc1cc(/C=C/c2ccc(OCC3CC3)cc2)cc(C=O)c1O [compound 65]
Please indicate which entry, I or II , has the lower recorded IC50 value. Reply with the label of the item you choose.
II
(II: 1.7 µM, I: 26.7 µM)
